Hello, the source for this data is patent US8008291B2, in case you need it.

- measurement-target: human MC5R (hMC5R) (Homo sapiens)
- Construct: purchased Perkin Elmer RBXMC5M400UA
- Sequence (P33032 whole entry): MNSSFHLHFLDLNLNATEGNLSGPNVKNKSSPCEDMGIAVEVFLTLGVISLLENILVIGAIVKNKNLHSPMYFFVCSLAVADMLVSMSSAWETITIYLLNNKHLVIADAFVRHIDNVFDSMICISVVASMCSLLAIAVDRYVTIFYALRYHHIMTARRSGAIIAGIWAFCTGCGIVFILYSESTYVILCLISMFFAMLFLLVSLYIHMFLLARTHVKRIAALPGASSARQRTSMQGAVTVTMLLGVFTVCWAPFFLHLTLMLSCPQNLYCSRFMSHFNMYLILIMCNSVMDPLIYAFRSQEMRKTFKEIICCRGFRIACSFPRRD
- assay-info: Human MC5R radioligand binding assay (membranes, [125I] NDP-MSH displacement)
- stated-conditions: hMC5R binding; tested as trifluoroacetate or hydrochloride salts, or free bases; read-out: MC5R radioligand IC50
parameter: IC50

Request: Quickly give me recorded IC50 for CC[C@H](CN1CC[C@@H](CNC(=O)c2ccc3cc(Cl)ccc3c2)N[C@@H](CCN2CCCC2)C1=O)c1ccccc1
Result: < 10 nM

Request: Quickly give me recorded IC50 for CC[C@H](CN1CCC(CNC(=O)c2ccc3cc(Cl)ccc3c2)NC(C2CCN(C(C)C)CC2)C1=O)c1ccccc1 (stereo partly shown)
Result: < 100 nM

Request: Quickly give me recorded IC50 for CC[C@H](CN1CC[C@@H](CNCc2ccc(Cl)c(Cl)c2)N[C@@H](CCN2CCCCC2)C1=O)c1ccccc1
Result: < 100 nM

Request: Quickly give me recorded IC50 for CC[C@H](CN1CC[C@@H](CNC(=O)c2ccc3ccccc3c2)N[C@@H](CCN2CCCCC2)C1=O)c1ccccc1
Result: < 100 nM

Request: Quickly give me recorded IC50 for CC[C@H](CN1CC[C@@H](CNC(=O)/C=C/c2ccc(OC(F)(F)F)c(F)c2)N[C@@H](CCN2CCCCC2)C1=O)c1ccccc1
Result: < 10 nM

Request: Quickly give me recorded IC50 for CN(C)C(=O)C(CN1CC[C@@H](CNC(=O)c2ccc3ccccc3c2)N[C@@H](CCCNC(=N)N)C1=O)c1ccccc1 (stereo partly shown)
Result: < 10000 nM

Request: Quickly give me recorded IC50 for O=C(/C=C/c1ccc(F)cc1F)NC[C@@H]1CCN(CC(c2ccccc2)c2ccccc2)C(=O)[C@H](CCN2CCCCC2)N1
Result: < 100 nM

Request: Quickly give me recorded IC50 for N=C(N)NCCC[C@@H]1N[C@H](CNC(=O)c2ccc3ccccc3c2)CCN(Cc2ccccc2)C1=O
Result: < 10000 nM

Request: Quickly give me recorded IC50 for NCCC[C@@H]1N[C@H](CNC(=O)c2ccc3ccccc3c2)CCN(Cc2cccc(Cl)c2)C1=O
Result: < 10000 nM

Request: Quickly give me recorded IC50 for O=C(/C=C/c1ccc(OC(F)(F)F)c(F)c1)NC[C@@H]1CCN(Cc2cc(Cl)cc(Cl)c2)C(=O)[C@H](CCN2CCCCC2)N1
Result: < 100 nM

Request: Quickly give me recorded IC50 for CC[C@H](CN1CC[C@@H](CNC(=O)c2ccc3cc(Cl)ccc3c2)N[C@@H](CCNS(=O)(=O)C(C)C)C1=O)c1ccccc1
Result: < 100 nM

Request: Quickly give me recorded IC50 for O=C(NC[C@@H]1CCN(CC(c2ccccc2)c2ccccc2)C(=O)[C@H](CCN2CCCCC2)N1)c1cc(-c2ccc(Cl)cc2)on1
Result: < 100 nM

Request: Quickly give me recorded IC50 for COc1cc(CN2CC[C@@H](CNC(=O)c3ccc4ccccc4c3)N[C@@H](CCCN)C2=O)cc(OC)c1
Result: < 10000 nM
